Tested on: Escherichia coli TOP10
Assay: shrunken log2 fold change of peptide-encoding DNA abundance (4.5 h post-induction vs induction); higher = less antimicrobial activity (less host growth inhibition)
Conditions: time post-induction: 4.5 h; library: site-saturation at positions 5, 18, 19, 20
ENDPOINT_NAME: shrunken log2 fold change
Provide a numeric answer; units are not to be included.

Here's what some known entries look like.
[
  {
    "BIOPOLYMER_SEQUENCE": "RRIRLRPPRLPRPRPRPQYQPRP",
    "REPORTED_MEASUREMENT": -0.801
  },
  {
    "BIOPOLYMER_SEQUENCE": "RRIRNRPPRLPRPRPRPPKTPRP",
    "REPORTED_MEASUREMENT": -0.103
  },
  {
    "BIOPOLYMER_SEQUENCE": "RRIRIRPPRLPRPRPRPEPWPRP",
    "REPORTED_MEASUREMENT": 0.39
  },
  {
    "BIOPOLYMER_SEQUENCE": "RRIRKRPPRLPRPRPRPNPTPRP",
    "REPORTED_MEASUREMENT": 0.249
  }
]

Inquiry: Quick one: shrunken log2 fold change of RRIRLRPPRLPRPRPRPFCDPRP ?
Reply text: -0.366

Inquiry: Next sequence up: RRIRFRPPRLPRPRPRPFIRPRP
Reply text: -0.588

----------
Test system: Escherichia coli TOP10
Assay: shrunken log2 fold change of peptide-encoding DNA abundance (4.5 h post-induction vs induction); higher = less antimicrobial activity (less host growth inhibition)
Conditions: time post-induction: 4.5 h; library: site-saturation at positions 5, 18, 19, 20
As shown below, each of these sequences has a reported shrunken log2 fold change value.
Provide a numeric answer; units are not to be included.

Here's what some known entries look like.
[
  {
    "BIOPOLYMER_SEQUENCE": "RRIRDRPPRLPRPRPRPHIYPRP",
    "shrunken log2 fold change": -0.0848
  },
  {
    "BIOPOLYMER_SEQUENCE": "RRIRRRPPRLPRPRPRPLKKPRP",
    "shrunken log2 fold change": 0.169
  }
]

Inquiry: Give shrunken log2 fold change (Escherichia coli TOP10) of the following sequence: RRIRVRPPRLPRPRPRPVTTPRP
Reply text: 0.126

Inquiry: Next sequence up: RRIRRRPPRLPRPRPRPRHKPRP
Reply text: 1.89

Inquiry: Next sequence up: RRIRQRPPRLPRPRPRPSKMPRP
Reply text: -0.0686

Inquiry: Next sequence up: RRIRNRPPRLPRPRPRPPCGPRP
Reply text: 0.317

Inquiry: Next sequence up: RRIRYRPPRLPRPRPRPLVYPRP
Reply text: -1.16

Inquiry: Next sequence up: RRIRHRPPRLPRPRPRPMKHPRP
Reply text: -0.0367

Inquiry: Next sequence up: RRIRDRPPRLPRPRPRPATMPRP
Reply text: 0.168

Inquiry: Next sequence up: RRIRSRPPRLPRPRPRPQVMPRP
Reply text: -0.193

Inquiry: Next sequence up: RRIRQRPPRLPRPRPRPSAQPRP
Reply text: -0.223

----------
As shown below, each of these sequences has a reported shrunken log2 fold change value.
Test system: Escherichia coli TOP10;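 note: peptides expressed intracellularly from a pBAD plasmid library in pooled LB shake-flask culture, induced with 0.3% L-arabinose, DNA abundance read by NGS, three biological replicates, DESeq2 with apeglm shrinkage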
Assay: shrunken log2 fold change of peptide-encoding DNA abundance (4.5 h post-induction vs induction); higher = less antimicrobial activity (less host growth inhibition)
Details: time post-induction: 4.5 h; library: site-saturation at positions 5, 18, 19, 20
Provide a numeric answer; units are not to be included.

Here's what some known entries look like.
[
  {
    "BIOPOLYMER_SEQUENCE": "RRIRKRPPRLPRPRPRPTTNPRP",
    "REPORTED_MEASUREMENT": 0.486
  },
  {
    "BIOPOLYMER_SEQUENCE": "RRIRCRPPRLPRPRPRPASVPRP",
    "REPORTED_MEASUREMENT": 0.176
  },
  {
    "BIOPOLYMER_SEQUENCE": "RRIRLRPPRLPRPRPRPLEQPRP",
    "REPORTED_MEASUREMENT": 0.0155
  }
]

Next:
Inquiry: Quick one: shrunken log2 fold change of RRIRHRPPRLPRPRPRPFMRPRP ?
Reply text: -0.42
